test system: EKVX; experiment: NCI tumour cell line growth inhibition, 48 h
Active and inactive are the calls of the source. Rule as the data show it: active = GI50 up to about 1.1 µM and inactive = higher.
measured.metric: GI50

>>> df
                                   compound          measurement
0  CC(=O)OCC1OC(Nc2ncc(-c3ccc(C)cc3)s2)C(OC(C)=O)C(OC(C)=O)C1OC(C)=O (configuration not stated)     54 µM (inactive)
1     COc1cccc(/N=C/c2cc3cc(Br)ccc3nc2Cl)c1   > 50 µM (inactive)
2                 N#Cc1ccc(Oc2ccccc2)cc1C#N  > 100 µM (inactive)
3  O=c1oc2c3ccc4ccccc4c3n(CCN3CCOCC3)c2c2ccccc12   14.8 µM (inactive)
4  O=C1c2ccccc2N2Oc3ccccc3C12c1ccccc1 (configuration not stated)  > 100 µM (inactive)
5  CCOC1OC(CO)C(O)CC1n1ccc(=O)[nH]c1=O (configuration not stated)  > 100 µM (inactive)
6  COc1cc(C2C(C(=O)O)=C(C)Oc3cc4c(cc32)OCO4)cc(OC)c1OC (configuration not stated)   58.5 µM (inactive)

----------
GI50 reference
system: OVCAR-5; assay: NCI tumour cell line growth inhibition, 48 h
Active and inactive are the calls of the source. Cut-off read from the data, not from the text of the source: active = GI50 up to about 1.1 µM and inactive = higher. Where a SMILES comes first, the peptide text is derived from it. [ ]: non-standard residue; d: D form. Phe(F5) = N[CH](Cc1c(F)c(F)c(F)c(F)c1F)C(=O)O
measured.metric: GI50

compound	measurement
Cc1ccccc1N1C(N)=C(C#N)C(C#N)(C#N)C1c1ccccc1 (stereo not drawn)	21.9 µM (inactive)
C=CCC1(C(=O)OC(C)(C)C)C(OC)=C(C(=O)OC(C)(C)C)C2C1C(C(=O)OC(C)(C)C)=C(OC)C2(CC=C)C(=O)OC(C)(C)C (stereo not drawn)	> 100 µM (inactive)
CN(C1=NCCO1)c1cccc2ccccc12	> 10 µM (inactive)
O=c1[nH]nc(Cc2ccccc2)n1/N=C\c1ccccc1	> 100 µM (inactive)
CN(c1ccccc1)C(c1ccccc1)C(O)c1ccccc1 (stereo not drawn)	19.5 µM (inactive)
COC(=O)C(CC(C)C)NC(=O)C(Cc1c[nH]cn1)NC(=O)CNC(=O)C(NC(=O)C(C)NC(=O)C(Cc1c[nH]c2ccccc12)NC(=O)C(CCC(=O)O)NC(=O)C(N)Cc1c(F)c(F)c(F)c(F)c1F)C(C)C (stereo not drawn) (H-[Phe(F5)]EWAVGHL-OMe; configuration not given here)	> 12.5 µM (inactive)
CN(C)c1ccc(C=c2c3ccccc3n3c2cc(-c2ccc(Cl)cc2)[n+]3C)cc1	1.04 µM (active)
O=C(NC(=O)c1ccccc1[N+](=O)[O-])Nc1ccc(Oc2ncc(Cl)cn2)c(C(F)(F)F)c1	0.0119 µM (active)

----------
test system: SF-539; assay: NCI tumour cell line growth inhibition, 48 h
Calls of active or inactive are those of the source. Rule as the data show it: active = GI50 up to about 1.1 µM and inactive = higher.
Outcomes: yes (1) (active), no (0) (inactive)

                                    compound  target_or_system    group
 0          COc1ccc(S(=O)(=O)N(C)CC(=O)O)cc1            SF-539   no (0)
 1              CN(CC(=O)O)c1ncc2c(n1)C=CCC2            SF-539   no (0)
 2  O=c1oc2c3ccc4ccccc4c3n(CCN3CCOCC3)c2c2ccccc12            SF-539   no (0)
 3     COc1ccc(/C(Cl)=C(\C=O)c2ccc(F)cc2)cc1            SF-539   no (0)
 4  C=CCCC(=O)N1CCC(C(=O)OCC)C1=O (stereo unspecified)            SF-539   no (0)
 5  CN(C)c1ccc(/C=C(\NC(=O)c2ccccc2)C(=O)Nc2ccccc2C(=O)NN2C(=O)CSC2c2ccc(N(C)C)cc2)cc1 (stereo unspecified)            SF-539   no (0)
 6  Fc1ccc(OCc2ccc3nc(-c4ccccc4)c(Cl)nc3c2)cc1            SF-539   no (0)
 7                       C=CCCCn1ccc2ccccc21            SF-539   no (0)
 8                Cc1nc2sccn2c1C(=O)NNC(N)=S            SF-539   no (0)
 9  CN1CCOC1(C)c1ccccc1 (stereo unspecified)            SF-539   no (0)
10  COc1cc([C@@H]2c3cc4c(cc3[C@@H](NC(=O)c3ccc(N)cc3)C3COC(=O)[C@@H]32)OCO4)cc(OC)c1O (stereo partly specified)            SF-539  yes (1)

----------
tested on: M14; experiment: NCI tumour cell line growth inhibition, 48 h
The source made the active and inactive calls. No stated cut-off is given here; in the data, active = GI50 up to about 1.1 µM and inactive = higher.
Outcomes: 1.0 for active, 0.0 for inactive

molecule	group
C[n+]1ccc(-c2cc[n+](C)cc2)cc1 [PARAQUAT DICHLORIDE]	0.0
CCN(CC)CCCNc1nc(=O)[nH]c(C)c1C(=O)Nc1ccc2c(c1)c1ccccc1n2CC	0.0
O=C(c1ccc(Br)cc1)n1c2ccc(Br)cc2c2nc3ccccc3nc21	0.0
COC(=O)n1c(CBr)c(Br)c2ccccc21	0.0
Cc1ccc(C(=O)/C=C/c2ccccc2O)c(C)c1	0.0
COC(=O)c1c(C)c2c(c(C)c1C(=O)OC)-c1c(C)ccc3ccc(C)c-2c13	0.0
COc1ccc(/N=c2\ssc3c(=S)ssc23)cc1	0.0
O=C1Nc2ccccc2/C1=N/NS(=O)(=O)c1ccc(C(=O)O)cc1	0.0
O=C(Nc1c(C(F)(F)F)cc(-c2ccccc2)[nH]c1=O)N1CCOCC1	0.0
CC1NC(/C(=C/c2ccccc2O)NC(=O)c2ccccc2)OC1=O (stereo not given)	0.0
O=C(c1ccc2ccccc2c1)N(Cc1cccnc1)C(=S)N(Cc1cccnc1)C(=O)c1ccc2ccccc2c1	0.0
O=S1(=O)CC#CC[C@@H](CO)[C@@H](CO)CC#CC1	0.0
CCCCCCCCCCCCCCCCOCC(CC(F)(F)P(=O)(O)O)OC(C)=O (stereo not given)	0.0
COc1cc(OC)c(-c2ccc(OCc3ccccc3)c3c(OC)cc(C)cc23)c2c1C(C)=N[C@H](C)C2	0.0
CCOC(=O)C1(C(F)(F)F)N=C(CC)OC(N2CCOCC2)=N1 (stereo not given)	0.0
COc1ccc(C)c2c1N[C@](C)([C@]1(C)Nc3c(OC)ccc(C)c3C1=O)C2=O	0.0
O=C(Cc1nc2sc3c(c2c(=O)[nH]1)CCCC3)Nc1ccccc1	0.0
O=C1CCSC(=S)N1c1ccc(Br)c(Cl)c1	0.0
CC(C)C1(O)C(c2ccccc2)=C(c2ccccc2)C(c2ccccc2)=C1c1ccccc1	0.0
CCOC(=O)CC[C@@H](NC(=O)c1ccc(N[C@@H]2c3cc4c(cc3C(c3cc(OC)c(O)c(OC)c3)C3C(=O)OC[C@@H]32)OCO4)cc1)C(=O)OCC (stereo not given in full)	0.0
CO[C@H]1C[C@H](O[C@H]2CC[C@]3(C=O)[C@H]4CC[C@]5(C)[C@@H](C6=CC(=O)OC6)CC[C@]5(O)[C@@H]4CC[C@]3(O)C2)O[C@H](C)[C@H]1O[C@@H]1O[C@H](CO)[C@@H](O)[C@H](O)[C@H]1O	1.0
CCc1n[nH]c(=O)n1-c1ccncc1	0.0
O=C(CC(=O)n1nc(-c2ccccc2)c(/N=N/c2ccc(Cl)cc2)c1-c1ccccc1)Nc1cccc(Cl)c1	0.0
N=C1/C(=C/c2ccccc2)C(=O)N=C2SC=NN12	0.0
O=C1Nc2ccccc2C1(O)C/C(=N/O)c1ccc2ccccc2c1 (stereo not given)	0.0
O=C(OCc1ccccc1)OOC(=O)OCc1ccccc1	0.0
O=CN/C=C/c1cc(O)ccc1O	0.0
COC(=O)C(Cc1ccccc1)/N=C/c1c(O)c(O)c(C(C)C)c2cc(C)c(-c3c(C)cc4c(C(C)C)c(O)c(O)c(/C=N/C(Cc5ccccc5)C(=O)OC)c4c3O)c(O)c12 (stereo not given)	0.0
CCOc1ncnc2ccc(Cl)c(I)c12	0.0
Cc1nc2ccccc2c(=O)n1NC(=S)Nc1ccccc1	0.0
CCCCN(CC)C(=O)C1=C(C)NC(C)=C(C(=O)N(CC)CCCC)C1	0.0
CN(C)c1n/c(=N/Cc2cccnc2)ss1	0.0
CC1=NN(c2nc(N)nc(/C(C#N)=C/c3ccccc3O)n2)C(C)(C)C1	0.0
Cc1ccc2c3c1[C@@H]1O[C@@H]1c1cccc(c1-3)[C@@H]1O[C@H]21	0.0
C=CCCC(=O)N1CCC(C(=O)OCC)C1=O (stereo not given)	0.0
FC(F)=C(c1ccc(-c2ccc(Cl)cc2)cc1)C(F)(F)F	0.0
NC(=O)c1nnn(-c2ccccc2)c1O	0.0
O=C(CCn1[nH]c(=O)c(Cl)c(Cl)c1=O)NO	0.0
CCCCCCCCCCCCCCCCNc1nc(=O)n(C2CC(O)C(COP(=O)(O)OC3CC(n4cc(F)c(=O)[nH]c4=O)OC3CO)O2)cc1F (stereo not given)	1.0
N#CC12COC3(CCCCC3C1(C#N)C#N)OC2=N (stereo not given)	0.0
